- Target System: T1, soluble KDR (VEGF Receptor 2 D1-7, Cat. #676490, Calbiochem) (human, UniProt P35968 20-764)
- T1 construct: extracellular domain; Bought reagent; also called soluble human KDR; immobilized soluble KDR
- T1 sequence (P35968 20-764): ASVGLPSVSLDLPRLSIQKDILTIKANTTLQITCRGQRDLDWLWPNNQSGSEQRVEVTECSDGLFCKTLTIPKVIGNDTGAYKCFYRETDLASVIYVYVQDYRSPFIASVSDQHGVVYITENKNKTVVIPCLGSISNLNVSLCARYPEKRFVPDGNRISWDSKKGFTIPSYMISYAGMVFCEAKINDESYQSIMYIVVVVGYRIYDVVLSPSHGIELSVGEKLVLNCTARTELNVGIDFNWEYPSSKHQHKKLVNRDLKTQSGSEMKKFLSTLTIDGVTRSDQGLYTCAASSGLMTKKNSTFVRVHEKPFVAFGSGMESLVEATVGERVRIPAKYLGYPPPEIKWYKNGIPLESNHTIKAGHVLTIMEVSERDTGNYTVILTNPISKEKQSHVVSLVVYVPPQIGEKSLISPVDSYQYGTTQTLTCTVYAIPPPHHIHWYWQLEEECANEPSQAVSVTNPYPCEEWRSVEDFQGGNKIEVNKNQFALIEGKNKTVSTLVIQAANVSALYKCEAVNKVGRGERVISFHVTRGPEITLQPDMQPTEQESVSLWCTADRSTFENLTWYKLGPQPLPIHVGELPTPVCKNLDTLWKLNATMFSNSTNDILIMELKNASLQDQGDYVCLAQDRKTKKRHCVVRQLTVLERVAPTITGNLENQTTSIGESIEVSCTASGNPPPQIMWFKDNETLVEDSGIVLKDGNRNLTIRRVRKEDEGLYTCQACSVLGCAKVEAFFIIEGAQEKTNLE
- Assay: ELISA, plate-coated soluble KDR 250 ng/mL, hybridoma supernatant 1:5
Assay Metric: KDR OD(450 nm)

{"columns": ["Binder", "Meas Value"],
 "data": [
  ["anti-KDR monoclonal antibody 22B8 (antibody, V domains shown, Fully human mAb from XenoMouse (IgG2 or IgG4 strain); hybridoma supernatant) VH: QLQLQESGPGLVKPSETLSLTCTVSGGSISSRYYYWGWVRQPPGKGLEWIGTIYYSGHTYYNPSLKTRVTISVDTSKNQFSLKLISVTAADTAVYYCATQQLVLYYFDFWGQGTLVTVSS VL: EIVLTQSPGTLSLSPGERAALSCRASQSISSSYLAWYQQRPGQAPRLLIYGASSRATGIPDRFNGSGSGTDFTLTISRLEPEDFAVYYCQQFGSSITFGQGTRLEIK", "1.18 OD450"]
]}

Just for reference, patent US20100260765A1 is where these values come from.
